# System: NCI-H460 lung
# Assay: NCI-60 one-dose screen, 48 h
# Assay Setup: 10 µM unless noted
About 83,000 compounds went through this panel and 20% of them were active in at least one assay; those are over-represented in the sample as a whole. Active and inactive are the calls of the source. The calls were made as follows: active = growth percent below 10; inactive = the rest.
Possible outcomes: active, inactive

molecule=COc1cc2nc(-c3ccc(-c4nn[nH]n4)cc3)[nH]c(=O)c2cc1OC class_assignment=inactive
molecule=Cc1cccc(C)c1-c1cc(Cc2ccc(Cl)cc2)c(=O)[nH]n1 class_assignment=inactive
molecule="O=C1CCCCCCCCC(O)C(O)CCCC(c2cccs2)O1 (centres undefined)" class_assignment=inactive
molecule=COc1ccc(/C=C2\COc3ccc(-c4ccccc4)cc3C2=O)cc1O class_assignment=inactive
molecule=CN1CCN(c2ccc(NC3=C(Cl)C(=O)c4ncccc4C3=O)cc2C#N)CC1 class_assignment=inactive
molecule="Cc1ccc(C2CC(c3cccc(Nc4ccncc4)c3)=NN2c2ccc(Cl)cc2)cc1 (centres undefined)" class_assignment=active
molecule=NC(=S)N/N=C(/c1ccccc1)c1ccccc1N class_assignment=inactive
molecule=COc1cc(-c2cc(=O)oc3cc(O)ccc23)cc(OC)c1OC class_assignment=inactive
molecule=CC(C)CCSc1nc(NNC(N)=O)c(C#N)c(-c2ccccc2)n1 class_assignment=inactive

Value source: PubChem BioAssay (NCI)
